target.or.system: proteinase 3 (PR3) (Homo sapiens)
Sequence (P24158 28-248): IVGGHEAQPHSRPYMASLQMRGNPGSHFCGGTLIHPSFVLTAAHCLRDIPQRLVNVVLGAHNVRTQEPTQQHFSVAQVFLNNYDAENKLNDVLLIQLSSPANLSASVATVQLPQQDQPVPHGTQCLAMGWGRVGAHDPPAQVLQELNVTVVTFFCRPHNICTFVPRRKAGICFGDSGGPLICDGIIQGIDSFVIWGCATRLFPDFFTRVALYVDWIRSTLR
test.description: Inhibitory activity toward proteinase 3, fluorogenic substrate, microplate reader
Type: biochemical
particulars: 10 min pre-incubation at 37°C, pH 7,5, Abz-Tyr-Tyr-Abu-Anb-NH2 30µM; NI = brak inhibicji (no inhibition)
For each of the molecules below, state its PR3 Kobs/[I].

# example entries with known answers
# PR3 Kobs/[I] of CC(C)C(NC(=O)CCCCC1SCC2NC(=O)NC21)C(=O)N1CCCC1C(=O)NC(C(C)C)P(=O)(Oc1ccccc1)Oc1ccccc1 (stereo not shown) [Compound 2] = 3.2*10^3 M^-1S^-1

# PR3 Kobs/[I] of COC(=O)c1ccc(OP(=O)(Oc2ccc(C(=O)OC)cc2)C(CC(C)C)NC(=O)C2CCCN2C(=O)C(NC(=O)CCCCC2SCC3NC(=O)NC32)C(C)C)cc1 (stereo not shown) [Compound 9] = 3.9*10^4 M^-1S^-1

# PR3 Kobs/[I] of CCC(NC(=O)C1CCCN1C(=O)C(NC(=O)CCCCC1SCC2NC(=O)NC21)C(C)C)P(=O)(Oc1ccc(SC)cc1)Oc1ccc(SC)cc1 (stereo not shown) [Compound 13] = 1.0*10^4 M^-1S^-1

Consider the additional molecule presented here.
# PR3 Kobs/[I] of CSc1ccc(OP(=O)(Oc2ccc(SC)cc2)C(NC(=O)C(NC(=O)C(NC(=O)C(Cc2ccccc2)NC(=O)CCC(=O)NCCCCCNC(=O)CCCCC2SCC3NC(=O)NC32)C(C)C)C(C)O)c2ccc(NC(=N)N)cc2)cc1 (stereo not shown) [Compound 11] = 3.8*10^3 M^-1S^-1

----------
For each of the molecules below, state its Sub Kobs/[I].
target.or.system: subtilisin (Sub) (Bacillus licheniformis, UniProt P00780)
Sequence (P00780 106-379): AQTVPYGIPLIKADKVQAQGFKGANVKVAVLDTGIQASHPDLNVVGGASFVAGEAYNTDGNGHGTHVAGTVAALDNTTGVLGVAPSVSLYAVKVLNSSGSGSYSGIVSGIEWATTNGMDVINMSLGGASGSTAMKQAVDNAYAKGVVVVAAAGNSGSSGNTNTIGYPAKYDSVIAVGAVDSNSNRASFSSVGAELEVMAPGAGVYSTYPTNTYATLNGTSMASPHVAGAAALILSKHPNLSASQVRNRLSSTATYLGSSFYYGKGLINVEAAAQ
test.description: Inhibitory activity toward subtilisin, fluorogenic substrate, microplate reader
Format: biochemical
particulars: 10 min pre-incubation at 37°C, pH 7,5, Me-Suc-Ala-Ala-Pro-Phe-AMC 5µM; NI = brak inhibicji (no inhibition)

# example entries with known answers
# Sub Kobs/[I] of CCC(NC(=O)C1CCCN1C(=O)C(NC(=O)CCCCC1SCC2NC(=O)NC21)C(C)C)P(=O)(Oc1ccc(SC)cc1)Oc1ccc(SC)cc1 (centres unmarked) = 7.8*10^3 M^-1S^-1

# Sub Kobs/[I] of CC(C)C(NC(=O)CCCCC1SCC2NC(=O)NC21)C(=O)N1CCCC1C(=O)NC(Cc1ccccc1)P(=O)(Oc1ccccc1)Oc1ccccc1 (centres unmarked) = 1.0*10^5 M^-1S^-1

# Sub Kobs/[I] of CSc1ccc(OP(=O)(Oc2ccc(SC)cc2)C(NC(=O)C(NC(=O)C(NC(=O)C(Cc2ccccc2)NC(=O)CCC(=O)NCCCCCNC(=O)CCCCC2SCC3NC(=O)NC32)C(C)C)C(C)O)c2ccc(NC(=N)N)cc2)cc1 (centres unmarked) = 2.4*10^3 M^-1S^-1

# Sub Kobs/[I] of CC(C)C(NC(=O)CCC(=O)NCCCCCNC(=O)CCCCC1SCC2NC(=O)NC21)C(=O)N1CCCC1C(=O)NC(Cc1ccccc1)P(=O)(Oc1ccccc1)Oc1ccccc1 (centres unmarked) = 2.9*10^4 M^-1S^-1

Consider the additional molecule presented here.
# Sub Kobs/[I] of CSc1ccc(OP(=O)(Oc2ccc(SC)cc2)C(C)NC(=O)C2CCCN2C(=O)C(NC(=O)CCCCC2SCC3NC(=O)NC32)C(C)C)cc1 (centres unmarked) = 2.9*10^4 M^-1S^-1

----------
target.or.system: human neutrophil elastase (HNE) (Homo sapiens, UniProt P08246)
Sequence (P08246 30-267): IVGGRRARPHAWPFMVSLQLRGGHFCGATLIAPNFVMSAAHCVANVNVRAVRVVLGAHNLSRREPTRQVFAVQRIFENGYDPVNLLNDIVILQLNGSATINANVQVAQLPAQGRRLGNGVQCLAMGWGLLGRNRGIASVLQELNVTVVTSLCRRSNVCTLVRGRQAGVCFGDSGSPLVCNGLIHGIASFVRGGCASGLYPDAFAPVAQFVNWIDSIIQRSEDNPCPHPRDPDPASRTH
test.description: Inhibitory activity toward human neutrophil elastase, fluorogenic substrate, microplate reader
Format: biochemical
particulars: 10 min pre-incubation at 37°C, pH 7,5, Me-Suc-Ala-Ala-Pro-Val-AFC 25µM; NI = brak inhibicji (no inhibition)
measurement.kind: HNE Kobs/[I]

# HNE Kobs/[I] of CSc1ccc(OP(=O)(Oc2ccc(SC)cc2)C(Cc2ccccc2)NC(=O)C2CCCN2C(=O)C(NC(=O)CCCCC2SCC3NC(=O)NC32)C(C)C)cc1 (stereo not drawn) [Compound 6] = 2.5*10^5 M^-1S^-1

# HNE Kobs/[I] of CCC(NC(=O)C1CCCN1C(=O)C(NC(=O)CCCCC1SCC2NC(=O)NC21)C(C)C)P(=O)(Oc1ccc(SC)cc1)Oc1ccc(SC)cc1 (stereo not drawn) [Compound 13] = 4.2*10^5 M^-1S^-1

# HNE Kobs/[I] of CSc1ccc(OP(=O)(Oc2ccc(SC)cc2)C(CC(C)C)NC(=O)C2CCCN2C(=O)CCCCC2SCC3NC(=O)NC32)cc1 (stereo not drawn) [Compound 8] = 3.0*10^2 M^-1S^-1

# HNE Kobs/[I] of CSc1ccc(OP(=O)(Oc2ccc(SC)cc2)C(C)NC(=O)C2CCCN2C(=O)C(NC(=O)CCCCC2SCC3NC(=O)NC32)C(C)C)cc1 (stereo not drawn) [Compound 4] = 2.1*10^5 M^-1S^-1

# HNE Kobs/[I] of CSc1ccc(OP(=O)(Oc2ccc(SC)cc2)C(CC(C)C)NC(=O)C2CCCN2C(=O)C(NC(=O)CCCCC2SCC3NC(=O)NC32)C(C)C)cc1 (stereo not drawn) [Compound 12] = 1.7*10^4 M^-1S^-1

Consider the additional compound presented here.
# HNE Kobs/[I] of CC(C)C(NC(=O)CCCCC1SCC2NC(=O)NC21)C(=O)N1CCCC1C(=O)NC(C(C)C)P(=O)(Oc1ccccc1)Oc1ccccc1 (stereo not drawn) [Compound 2] = 1.8*10^5 M^-1S^-1

----------
target.or.system: human neutrophil elastase (HNE) (Homo sapiens, UniProt P08246)
test.description: Inhibitory activity toward human neutrophil elastase, fluorogenic substrate, microplate reader
Format: biochemical
Rule: IC50 below 6 nM gives criterion met. Equal to or above 6 nM gives criterion not met.

For orientation, consider the following solved cases.
**Q:** Is 6 nM strictly greater than the molecule's reported IC50? molecule: CSc1ccc(OP(=O)(Oc2ccc(SC)cc2)C(CC(C)C)NC(=O)C2CCCN2C(=O)CCCCC2SCC3NC(=O)NC32)cc1 (stereo not shown)
**A:** criterion not met

**Q:** Is 6 nM strictly greater than the molecule's reported IC50? molecule: CSc1ccc(OP(=O)(Oc2ccc(SC)cc2)C(Cc2ccccc2)NC(=O)C2CCCN2C(=O)C(NC(=O)CCCCC2SCC3NC(=O)NC32)C(C)C)cc1 (stereo not shown)
**A:** criterion met

**Q:** Is 6 nM strictly greater than the molecule's reported IC50? molecule: COC(=O)c1ccc(OP(=O)(Oc2ccc(C(=O)OC)cc2)C(CC(C)C)NC(=O)C2CCCN2C(=O)C(NC(=O)CCCCC2SCC3NC(=O)NC32)C(C)C)cc1 (stereo not shown)
**A:** criterion met

**Q:** Is 6 nM strictly greater than the molecule's reported IC50? molecule: CSc1ccc(OP(=O)(Oc2ccc(SC)cc2)C(C)NC(=O)C2CCCN2C(=O)C(NC(=O)CCCCC2SCC3NC(=O)NC32)C(C)C)cc1 (stereo not shown)
**A:** criterion met

**Q:** Is 6 nM strictly greater than the molecule's reported IC50? molecule: CCC(NC(=O)C1CCCN1C(=O)C(NC(=O)CCCCC1SCC2NC(=O)NC21)C(C)C)P(=O)(Oc1ccc(SC)cc1)Oc1ccc(SC)cc1 (stereo not shown)
**A:** criterion met

New cases:
**Q:** Is 6 nM strictly greater than the molecule's reported IC50? molecule: CC(C)C(NC(=O)CCCCC1SCC2NC(=O)NC21)C(=O)N1CCCC1C(=O)NC(C(C)C)P(=O)(Oc1ccccc1)Oc1ccccc1 (stereo not shown)
**A:** criterion not met

**Q:** Is 6 nM strictly greater than the molecule's reported IC50? molecule: CSc1ccc(OP(=O)(Oc2ccc(SC)cc2)C(CC(C)C)NC(=O)C2CCCN2C(=O)C(NC(=O)CCCCC2SCC3NC(=O)NC32)C(C)C)cc1 (stereo not shown)
**A:** criterion not met

----------
target.or.system: cathepsin G (CatG) (Homo sapiens, UniProt P08311)
Sequence (P08311 21-244): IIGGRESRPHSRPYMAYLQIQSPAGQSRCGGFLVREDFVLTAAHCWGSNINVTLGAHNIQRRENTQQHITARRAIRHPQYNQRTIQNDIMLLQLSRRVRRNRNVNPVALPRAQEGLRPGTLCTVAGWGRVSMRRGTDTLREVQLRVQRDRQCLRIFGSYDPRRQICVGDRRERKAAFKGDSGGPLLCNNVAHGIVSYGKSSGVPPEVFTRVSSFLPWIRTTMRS
test.description: Inhibitory activity toward cathepsin G, fluorogenic substrate, microplate reader
Type: biochemical
measurement.kind: pIC50
One number for each entry, as −log10 of the molar value.

# pIC50 of CC(C)C(NC(=O)CCC(=O)NCCCCCNC(=O)CCCCC1SCC2NC(=O)NC21)C(=O)N1CCCC1C(=O)NC(Cc1ccccc1)P(=O)(Oc1ccccc1)Oc1ccccc1 (stereo not shown) [Compound 10] = 6.52

# pIC50 of CSc1ccc(OP(=O)(Oc2ccc(SC)cc2)C(CC(C)C)NC(=O)C2CCCN2C(=O)C(NC(=O)CCCCC2SCC3NC(=O)NC32)C(C)C)cc1 (stereo not shown) [Compound 12] = 6.36

# pIC50 of CSc1ccc(OP(=O)(Oc2ccc(SC)cc2)C(Cc2ccccc2)NC(=O)C2CCCN2C(=O)C(NC(=O)CCCCC2SCC3NC(=O)NC32)C(C)C)cc1 (stereo not shown) [Compound 6] = 6.66

Consider the additional compound presented here.
# pIC50 of CSc1ccc(OP(=O)(Oc2ccc(SC)cc2)C(NC(=O)C(NC(=O)C(NC(=O)C(Cc2ccccc2)NC(=O)CCC(=O)NCCCCCNC(=O)CCCCC2SCC3NC(=O)NC32)C(C)C)C(C)O)c2ccc(NC(=N)N)cc2)cc1 (stereo not shown) [Compound 11] = 5.32
